Recorded measurements of pKi, one per entry
# Study system: h-SERT (Homo sapiens, UniProt P31645)
# Construct: purchased Perkin-Elmer RBHSTM400UA; host or cells: HEK293 membranes
# Sequence (P31645 whole entry): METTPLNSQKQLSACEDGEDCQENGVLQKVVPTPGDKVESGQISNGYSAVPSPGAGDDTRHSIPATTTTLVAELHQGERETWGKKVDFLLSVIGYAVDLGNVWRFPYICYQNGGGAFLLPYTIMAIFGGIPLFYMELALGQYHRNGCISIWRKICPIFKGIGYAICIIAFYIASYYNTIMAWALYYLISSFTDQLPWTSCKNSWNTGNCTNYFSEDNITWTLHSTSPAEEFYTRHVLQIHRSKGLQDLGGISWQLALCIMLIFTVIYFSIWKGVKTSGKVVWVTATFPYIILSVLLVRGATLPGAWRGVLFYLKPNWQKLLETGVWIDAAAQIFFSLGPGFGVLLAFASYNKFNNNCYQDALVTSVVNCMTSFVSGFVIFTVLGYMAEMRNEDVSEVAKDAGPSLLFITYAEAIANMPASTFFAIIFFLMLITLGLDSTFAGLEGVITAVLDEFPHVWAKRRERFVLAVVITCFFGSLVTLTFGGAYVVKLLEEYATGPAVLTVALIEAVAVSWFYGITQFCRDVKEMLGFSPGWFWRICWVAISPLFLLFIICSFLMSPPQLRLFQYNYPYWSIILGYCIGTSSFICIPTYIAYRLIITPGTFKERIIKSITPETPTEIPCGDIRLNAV
# Test summary: biochemical
# Type: binding
# Stated conditions: displacement of 2 nM [3H]-paroxetine, HEK293 membranes, Cheng-Prusoff
pKi: −log10 of the molar value.
Value type: pKi

Smiles string	Study system	Censoring operator	Reading
COc1cccc(C(=O)N2CCC(CN3CCc4cc(OC)c(OC)cc4C3)CC2)c1	h-SERT (Homo sapiens, UniProt P31645)	=	5.80
COc1cc2c(cc1OC)CN(CC1CCN(C(=O)c3cccc(Cl)c3)CC1)CC2	h-SERT (Homo sapiens, UniProt P31645)	=	5.61
O=C(Cc1ccccc1)OCC1CCN(Cc2ccccc2)CC1	h-SERT (Homo sapiens, UniProt P31645)	=	4.57
COc1cc2c(cc1OC)CN(CC1CCN(C(=O)c3cccc(F)c3)CC1)CC2	h-SERT (Homo sapiens, UniProt P31645)	=	5.72
COc1cc2c(cc1OC)CN(C(=O)C1CCN(Cc3ccc(Cl)cc3Cl)CC1)CC2	h-SERT (Homo sapiens, UniProt P31645)	<	4.00
COc1cc2c(cc1OC)CN(C(=O)C1CCN(Cc3cccc(F)c3)CC1)CC2	h-SERT (Homo sapiens, UniProt P31645)	<	4.00
COc1cc2c(cc1OC)CN(C(=O)C1CCN(Cc3ccccc3)CC1)CC2	h-SERT (Homo sapiens, UniProt P31645)	<	4.00
COc1cc2c(cc1OC)CN(C(=O)C1CCN(Cc3cccc(Cl)c3)CC1)CC2	h-SERT (Homo sapiens, UniProt P31645)	<	4.00
O=C(OCC1CCN(Cc2ccccc2)CC1)C(c1ccccc1)c1ccccc1	h-SERT (Homo sapiens, UniProt P31645)	=	4.59

----------
Measured pKi on UniProt:P31645 follows.
pKi: −log10 of the molar value.
Value type: pKi

Smiles string	Study system	Censoring operator	Reading
COc1cc2c(cc1OC)CN(C(=O)C1CCN(Cc3cccc(Br)c3)CC1)CC2	UniProt:P31645	<	4.00
COc1cc2c(cc1OC)CN(CC1CCN(C(=O)c3cccc(Br)c3)CC1)CC2	UniProt:P31645	=	5.83
COc1cc2c(cc1OC)CN(CC1CCN(C(=O)c3ccccc3)CC1)CC2	UniProt:P31645	=	5.58
O=C(OCC1CCN(Cc2ccccc2)CC1)c1ccc2ccccc2c1	UniProt:P31645	=	4.57
O=C(Cc1ccc(Cl)cc1)OCC1CCN(Cc2ccccc2)CC1	UniProt:P31645	<	4.00

----------
# Study system: AChE (Homo sapiens)
# Sequence (P22303 32-614): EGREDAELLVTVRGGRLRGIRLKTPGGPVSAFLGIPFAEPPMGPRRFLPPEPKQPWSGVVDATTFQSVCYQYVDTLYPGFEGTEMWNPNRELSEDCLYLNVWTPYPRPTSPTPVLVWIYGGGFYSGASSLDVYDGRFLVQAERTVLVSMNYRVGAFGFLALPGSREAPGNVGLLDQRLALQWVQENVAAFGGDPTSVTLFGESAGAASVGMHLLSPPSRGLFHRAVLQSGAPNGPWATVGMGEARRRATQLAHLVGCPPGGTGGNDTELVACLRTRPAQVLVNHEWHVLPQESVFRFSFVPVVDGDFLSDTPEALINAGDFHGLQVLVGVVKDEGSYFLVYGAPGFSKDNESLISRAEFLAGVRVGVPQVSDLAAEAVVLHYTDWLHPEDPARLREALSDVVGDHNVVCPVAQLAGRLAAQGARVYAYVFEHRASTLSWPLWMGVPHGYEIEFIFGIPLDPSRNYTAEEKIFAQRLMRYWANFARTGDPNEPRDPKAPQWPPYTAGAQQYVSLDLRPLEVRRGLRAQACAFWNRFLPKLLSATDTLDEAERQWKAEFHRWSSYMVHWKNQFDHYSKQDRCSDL
# Test summary: biochemical
# Stated conditions: means ± SD of three determinations; 30 min preincubation at 25 °C, pH 7.5; read-out: AChE IC50
pIC50: −log10 of the molar value.
Value type: pIC50

Molecule	Value type	Censoring operator	Reading
O=C(Cc1ccc(F)cc1)OCC1CCN(Cc2ccccc2)CC1 [Compound 19]	pIC50	=	5.29
COc1cccc(C(=O)N2CCC(CN3CCc4cc(OC)c(OC)cc4C3)CC2)c1 [Compound 16]	pIC50	=	3.36
COc1cc2c(cc1OC)CN(C(=O)C1CCN(Cc3ccc(Cl)cc3Cl)CC1)CC2 [Compound 11]	pIC50	<	3.30
O=C(Cc1ccc(Cl)cc1)OCC1CCN(Cc2ccccc2)CC1 [Compound 20]	pIC50	=	3.59
COc1cc2c(cc1OC)CN(CC1CCN(C(=O)c3cccc(Cl)c3)CC1)CC2 [Compound 14]	pIC50	<	3.30

----------
In this section, each of the compounds is paired with its reported IC50.
# Study system: AChE (Homo sapiens)
# Test summary: biochemical
# Stated conditions: means ± SD of three determinations; 30 min preincubation at 25 °C, pH 7.5; read-out: AChE IC50
Value type: IC50

Smiles string	Reading
COc1cc2c(cc1OC)CN(CC1CCN(C(=O)c3cccc(F)c3)CC1)CC2	> 500 µM
COc1cc2c(cc1OC)CN(CC1CCN(C(=O)c3cccc(Br)c3)CC1)CC2	242 µM
O=C(OCC1CCN(Cc2ccccc2)CC1)c1ccc2ccccc2c1	61.7 µM
COc1cc2c(cc1OC)CN(C(=O)C1CCN(Cc3cccc(Cl)c3)CC1)CC2	34.5 µM
COc1cc2c(cc1OC)CN(C(=O)C1CCN(Cc3ccccc3)CC1)CC2	34.4 µM
COc1cc2c(cc1OC)CN(C(=O)C1CCN(Cc3cccc(F)c3)CC1)CC2	41.2 µM
O=C(OCC1CCN(Cc2ccccc2)CC1)C(c1ccccc1)c1ccccc1	> 500 µM
COc1cc2c(cc1OC)CN(C(=O)C1CCN(Cc3cccc(Br)c3)CC1)CC2	28.3 µM
COc1cc2c(cc1OC)CN(CC1CCN(C(=O)c3ccccc3)CC1)CC2	290 µM
